Experiment: Scavenging activity against NO generation in human Chang liver cells assessed as inhibition of NOR1-activation at 350 nM relative to NOR1
Type: functional
Measured Activity, listed per entry for reference.
Respond using a number only.

INPUT: Look up Activity for this compound: C=C(CC[C@@H](C)[C@H]1CC[C@@]2(C)[C@@H]3CC[C@H]4[C@@H](C)C(=O)CC[C@@]45C[C@@]35CC[C@]12C)C(C)C
OUTPUT: 1.5

INPUT: What value of Activity has been reported for the following compound? CC(=O)O[C@H]1CC[C@]23C[C@]24CC[C@]2(C)[C@@H]([C@H](C)CCC=C(C)C)CC[C@@]2(C)[C@@H]4CC[C@H]3C1(C)C [CYCLOARTENOL ACETATE]
OUTPUT: 1.8

Proceeding to the next compound to report its Activity.
INPUT: Could you share which Activity value was measured for C=C(CC[C@@H](C)[C@H]1CC[C@@]2(C)[C@@H]3CC[C@H]4[C@H](C)[C@@H](OC(C)=O)CC[C@@]45C[C@@]35CC[C@]12C)C(C)C [CYCLOEUCALENOL ACETATE] ?
OUTPUT: 1.5
